Target: human OX1R (Homo sapiens, UniProt O43613)
Construct: expressed in transfected cells; host or cells: CHO (Chinese hamster ovary) cells, line CHOOX1R, co-expressing NFAT-luciferase
Sequence (O43613 1-425): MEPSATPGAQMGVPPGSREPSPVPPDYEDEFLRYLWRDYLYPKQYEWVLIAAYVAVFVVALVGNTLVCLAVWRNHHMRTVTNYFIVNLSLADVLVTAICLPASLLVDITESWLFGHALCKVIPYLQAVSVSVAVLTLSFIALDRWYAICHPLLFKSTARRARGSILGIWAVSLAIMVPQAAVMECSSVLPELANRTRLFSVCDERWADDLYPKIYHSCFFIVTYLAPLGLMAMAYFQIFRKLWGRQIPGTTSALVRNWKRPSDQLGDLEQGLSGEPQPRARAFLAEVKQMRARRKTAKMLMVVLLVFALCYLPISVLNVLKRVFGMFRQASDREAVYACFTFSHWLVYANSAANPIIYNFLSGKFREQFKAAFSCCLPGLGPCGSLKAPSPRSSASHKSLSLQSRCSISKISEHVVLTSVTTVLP
Assay: Agonist activity against OX1R: intracellular calcium (Fura-2AM, FDSS7000) in CHOOX1R cells
Format: cell-based
Conditions: 1.0 μM test compound; relative to orexin-A as full agonist (100%)
assay readout: Response (%) OX1R

compound: COc1ccc(-c2cccc(C(=O)N(C)C)c2)cc1S(=O)(=O)Nc1cccc(NCc2cccc(C)c2)c1
measured on: human OX1R (Homo sapiens, UniProt O43613)
assay value: <5%

compound: COc1ccc(-c2cccc(C(=O)N(C)C)c2)cc1S(=O)(=O)Nc1cccc(Nc2ccc(C(=O)N(C)C)cc2)c1
measured on: human OX1R (Homo sapiens, UniProt O43613)
assay value: <5%

compound: COc1ccc(-c2cccc(C(=O)N(C)C)c2)cc1S(=O)(=O)Nc1cccc(NC(=O)c2ccc3ccccc3c2)c1
measured on: human OX1R (Homo sapiens, UniProt O43613)
assay value: 6%

compound: COc1ccc(-c2cccc(C(=O)N(C)C)c2)cc1S(=O)(=O)Nc1cccc(NC(=O)OC(C)(C)C)c1
measured on: human OX1R (Homo sapiens, UniProt O43613)
assay value: 7%

compound: COc1cccc(Nc2cccc(NS(=O)(=O)c3cc(-c4cccc(C(=O)N(C)C)c4)ccc3OC)c2)c1
measured on: human OX1R (Homo sapiens, UniProt O43613)
assay value: <5%

compound: COc1ccc(-c2cccc(C(=O)N(C)C)c2)cc1S(=O)(=O)Nc1cccc(NC(=O)Nc2cccc(C(=O)O)c2)c1
measured on: human OX1R (Homo sapiens, UniProt O43613)
assay value: <5%

compound: COc1ccc(-c2cccc(C(=O)N(C)C)c2)cc1S(=O)(=O)Nc1cccc(NC(=N)Nc2cccc(C)c2)c1
measured on: human OX1R (Homo sapiens, UniProt O43613)
assay value: <5%

compound: COc1ccc(-c2cccc(C(=O)N(C)C)c2)cc1S(=O)(=O)Nc1cccc(NC(=O)Nc2cccc(NC(=N)N)c2)c1
measured on: human OX1R (Homo sapiens, UniProt O43613)
assay value: <5%

compound: COc1cccc(NC(=O)Nc2cccc(NS(=O)(=O)c3cc(-c4cccc(C(=O)N(C)C)c4)ccc3OC)c2)c1
measured on: human OX1R (Homo sapiens, UniProt O43613)
assay value: <5%

compound: COc1ccc(-c2cccc(C(=O)N(C)C)c2)cc1S(=O)(=O)Nc1cccc(NC(=S)Nc2cccc(C)c2)c1
measured on: human OX1R (Homo sapiens, UniProt O43613)
assay value: 20%

compound: COc1ccc(-c2cccc(C(=O)N(C)C)c2)cc1S(=O)(=O)Nc1cccc(NC(=O)Nc2ccncc2)c1
measured on: human OX1R (Homo sapiens, UniProt O43613)
assay value: 6%

compound: COc1ccc(C(=O)Nc2cccc(NS(=O)(=O)c3cc(-c4cccc(C(=O)N(C)C)c4)ccc3OC)c2)cc1
measured on: human OX1R (Homo sapiens, UniProt O43613)
assay value: <5%

compound: COc1ccc(-c2cccc(C(=O)N(C)C)c2)cc1S(=O)(=O)Nc1cccc(NC(=O)c2cccc(N(C)C)c2)c1
measured on: human OX1R (Homo sapiens, UniProt O43613)
assay value: 8%

compound: COc1ccc(-c2cccc(C(=O)N(C)C)c2)cc1S(=O)(=O)Nc1cccc(NCc2ccccc2Br)c1
measured on: human OX1R (Homo sapiens, UniProt O43613)
assay value: <5%

compound: COc1ccc(-c2cccc(C(=O)N(C)C)c2)cc1S(=O)(=O)Nc1cccc(NC(=O)c2ccccc2Br)c1
measured on: human OX1R (Homo sapiens, UniProt O43613)
assay value: 11%

compound: COc1ccc(-c2cccc(C(=O)N(C)C)c2)cc1S(=O)(=O)Nc1cccc(NC(=O)C[S+]([O-])C(c2ccccc2)c2ccccc2)c1 (centres unmarked)
measured on: human OX1R (Homo sapiens, UniProt O43613)
assay value: 63%

compound: COc1ccc(-c2cccc(C(=O)N(C)C)c2)cc1S(=O)(=O)Nc1cccc(NCc2ccccc2C)c1
measured on: human OX1R (Homo sapiens, UniProt O43613)
assay value: <5%

compound: COc1ccc(-c2cccc(C(=O)N(C)C)c2)cc1S(=O)(=O)Nc1cccc(NC(=O)Nc2cc([N+](=O)[O-])cc([N+](=O)[O-])c2)c1
measured on: human OX1R (Homo sapiens, UniProt O43613)
assay value: <5%

compound: COc1ccc(-c2cccc(C(=O)N(C)C)c2)cc1S(=O)(=O)Nc1cccc(NC(=O)Nc2ccc(C)cc2)c1
measured on: human OX1R (Homo sapiens, UniProt O43613)
assay value: <5%

compound: COc1ccc(Nc2cccc(NS(=O)(=O)c3cc(-c4cccc(C(=O)N(C)C)c4)ccc3OC)c2)cc1OC
measured on: human OX1R (Homo sapiens, UniProt O43613)
assay value: <5%

----------
Target: human OX2R (Homo sapiens, UniProt O43614)
Construct: expressed in transfected cells; host or cells: CHO (Chinese hamster ovary) cells, line CHOOX2R, co-expressing NFAT-luciferase
Sequence (O43614 1-444): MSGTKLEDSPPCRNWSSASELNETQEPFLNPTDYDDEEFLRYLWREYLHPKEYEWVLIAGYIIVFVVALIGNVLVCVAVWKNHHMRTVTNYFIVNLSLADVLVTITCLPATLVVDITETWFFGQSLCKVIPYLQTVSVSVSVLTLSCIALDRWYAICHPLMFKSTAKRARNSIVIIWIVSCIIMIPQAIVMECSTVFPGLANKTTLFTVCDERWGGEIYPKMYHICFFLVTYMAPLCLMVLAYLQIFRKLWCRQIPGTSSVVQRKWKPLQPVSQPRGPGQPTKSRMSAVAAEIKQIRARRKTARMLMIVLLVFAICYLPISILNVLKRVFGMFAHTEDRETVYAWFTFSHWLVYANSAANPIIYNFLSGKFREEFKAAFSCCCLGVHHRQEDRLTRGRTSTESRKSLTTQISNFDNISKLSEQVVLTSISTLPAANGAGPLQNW
Assay: Agonist activity against OX2R: intracellular calcium (Fura-2AM, FDSS7000) in CHOOX2R cells
Assay type: cell-based
Conditions: 0.1 μM test compound; relative to orexin-A as full agonist (100%)
// reported Response (%) OX2R per item

compound: COc1ccc(-c2cccc(C(=O)N(C)C)c2)cc1S(=O)(=O)Nc1cccc(NC(=S)Nc2ccccc2)c1 [Example 75]
Response (%) OX2R: 61%

compound: COc1ccc(-c2cccc(C(=O)N(C)C)c2)cc1S(=O)(=O)Nc1cccc(NCc2ccccc2)c1 [Example 20]
Response (%) OX2R: <5%

compound: COc1ccc(-c2cccc(C(=O)N(C)C)c2)cc1S(=O)(=O)Nc1cccc(NC(=O)/C=C/c2ccoc2)c1 [Example 14]
Response (%) OX2R: <5%

----------
Molecular target: human OX2R (Homo sapiens, UniProt O43614)
Construct: expressed in transfected cells; host or cells: CHO (Chinese hamster ovary) cells, line CHOOX2R, co-expressing NFAT-luciferase
Test: Agonist activity against OX2R: intracellular calcium (Fura-2AM, FDSS7000) in CHOOX2R cells
Type: cell-based
Details: 1.0 μM test compound; relative to orexin-A as full agonist (100%)
assay readout: Response (%) OX2R

compound: COc1ccc(-c2cccc(C(=O)N(C)C)c2)cc1S(=O)(=O)Nc1cccc(NC(=O)c2cccc(Br)c2)c1 [Example 3]
measured on: human OX2R (Homo sapiens, UniProt O43614)
assay readout: Response (%) OX2R
assay value: 6%
--
compound: COc1ccc(-c2cccc(C(=O)N(C)C)c2)cc1S(=O)(=O)Nc1cccc(NC(=O)c2ccc(C)cc2)c1 [Example 17]
measured on: human OX2R (Homo sapiens, UniProt O43614)
assay readout: Response (%) OX2R
assay value: 9%
--
compound: COc1ccc(-c2cccc(C(=O)N(C)C)c2)cc1S(=O)(=O)Nc1cccc(NC(=O)OCc2ccccc2)c1 [Example 73]
measured on: human OX2R (Homo sapiens, UniProt O43614)
assay readout: Response (%) OX2R
assay value: 49%
--
compound: COc1ccc(-c2cccc(C(=O)N(C)C)c2)cc1S(=O)(=O)Nc1cccc(NC(=O)Nc2ccc(C)cc2)c1 [Example 56]
measured on: human OX2R (Homo sapiens, UniProt O43614)
assay readout: Response (%) OX2R
assay value: 96%
--
compound: COc1ccc(-c2cccc(C(=O)N(C)C)c2)cc1S(=O)(=O)Nc1cccc(Nc2c(Nc3cccc(C)c3)c(=O)c2=O)c1 [Example 80]
measured on: human OX2R (Homo sapiens, UniProt O43614)
assay readout: Response (%) OX2R
assay value: <5%
